Please provide measured melting point for the entries that follow.

melting point reading for NS(=O)(=O)OCC1CCc2ccccc2O1 (stereo not drawn) [ID No. 11, Chroman-2-ylmethylsulfamate] : 87 to 90 °C

melting point reading for NS(=O)(=O)NCCC1COc2ccccc2O1 (stereo not drawn) : 101 to 103 °C

melting point reading for NS(=O)(=O)OC[C@H]1COc2cc(Cl)c(Cl)cc2O1 : 109 to 111 °C
